Target: furin, P09958;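 also: purified furin at 1:10 enzyme:substrate in 50 mM HEPES pH 7.5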
Sequence (P09958 whole entry): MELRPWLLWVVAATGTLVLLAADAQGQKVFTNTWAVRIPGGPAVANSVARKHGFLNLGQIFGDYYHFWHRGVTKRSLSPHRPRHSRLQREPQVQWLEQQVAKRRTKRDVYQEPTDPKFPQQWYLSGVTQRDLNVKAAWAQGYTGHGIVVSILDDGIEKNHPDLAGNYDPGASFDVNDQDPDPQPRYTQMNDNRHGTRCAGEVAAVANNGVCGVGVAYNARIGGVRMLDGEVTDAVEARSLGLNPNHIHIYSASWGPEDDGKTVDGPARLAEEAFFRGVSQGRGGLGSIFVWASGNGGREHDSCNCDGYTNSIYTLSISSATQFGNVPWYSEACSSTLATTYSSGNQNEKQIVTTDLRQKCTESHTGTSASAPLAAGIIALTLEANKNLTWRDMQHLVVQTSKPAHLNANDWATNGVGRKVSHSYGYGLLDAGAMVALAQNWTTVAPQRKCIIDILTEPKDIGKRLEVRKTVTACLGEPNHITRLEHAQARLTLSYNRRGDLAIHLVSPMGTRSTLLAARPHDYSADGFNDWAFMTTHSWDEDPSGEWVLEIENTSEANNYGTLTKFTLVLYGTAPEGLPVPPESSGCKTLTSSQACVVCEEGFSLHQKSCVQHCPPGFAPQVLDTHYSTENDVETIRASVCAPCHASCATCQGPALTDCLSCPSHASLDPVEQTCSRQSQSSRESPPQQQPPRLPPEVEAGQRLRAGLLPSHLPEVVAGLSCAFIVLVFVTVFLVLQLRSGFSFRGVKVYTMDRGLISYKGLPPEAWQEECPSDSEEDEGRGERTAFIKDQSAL
Assay: furin cleavage Z-score vs untreated control; higher = more cleavage, active = 3.5 or more, inactive = 1 or less, 8 variable residues between constant flanks
Settings: 30 min
Some of the results follow. How many sequences the whole screen found active is unknown.
Response key: Criterion met means furin cleavage Z-score >= 1; Criterion not met means furin cleavage Z-score < 1.

{"Primary sequence": "CARLKRRVKSAGNASASA [FS-2351]", "Label class": "Criterion met"}
{"Primary sequence": "CAGHFRLKRTAGNASASA [FS-781]", "Label class": "Criterion met"}
{"Primary sequence": "CAMEECSEHLAGNASASA [HC1732]", "Label class": "Criterion not met"}
{"Primary sequence": "CATTPCSGIWAGNASASA [HC1904]", "Label class": "Criterion not met"}

Problem: I'd appreciate it if you could say whether CAASGVLTTSAGNASASA [HC1511] has furin cleavage Z-score at least equal to 1.
Solution: Criterion not met

Problem: I'd appreciate it if you could say whether CARKARWLRAAGNASASA [FS-2262] has furin cleavage Z-score at least equal to 1.
Solution: Criterion met

Problem: I'd appreciate it if you could say whether CARRKRYAEHAGNASASA [FS-3056] has furin cleavage Z-score at least equal to 1.
Solution: Criterion met

Problem: I'd appreciate it if you could say whether CARRGRAARHAGNASASA [FS-1609] has furin cleavage Z-score at least equal to 1.
Solution: Criterion met
